# Test system: HeLa cells
# EXPERIMENT DESCRIPTION: alamarBlue cell viability assay
# Format: cell-based, human
# CONDITION INFO: Homo sapiens, HeLa, 72 h, HeLa, 0.2% O2 (hypoxia), read-out: EC50
TEST READOUT: EC50 (µM)
Give bare numbers, in µM.

Asked: Could you share which EC50 value was measured for `NS(=O)(=O)c1c(F)c(F)c(SCCc2ccc(C(=O)O)cc2)c(F)c1NC1CCCCCCCCCCC1` ?
Given back: 40.8

---

# EXPERIMENTAL SYSTEM: CA IV (Homo sapiens)
# Construct: 12 recombinant catalytic domains of human active CA isoforms as determined by FTSA
# Sequence (P22748 21-285 limits assumed): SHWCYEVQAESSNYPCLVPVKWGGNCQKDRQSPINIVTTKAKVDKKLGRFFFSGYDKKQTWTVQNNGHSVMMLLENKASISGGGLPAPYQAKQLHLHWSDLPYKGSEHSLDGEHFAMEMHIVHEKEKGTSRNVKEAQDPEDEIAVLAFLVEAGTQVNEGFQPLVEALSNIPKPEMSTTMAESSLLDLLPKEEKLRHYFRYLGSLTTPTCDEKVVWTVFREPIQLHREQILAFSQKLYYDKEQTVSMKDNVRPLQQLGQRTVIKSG
# EXPERIMENT DESCRIPTION: Fluorescent thermal shift assay (FTSA)
# CONDITION INFO: pH 7.0, 37° C
TEST READOUT: Kd (nM)
Numbers only, in nM.

Asked: Form entry - test system: CA IV (Homo sapiens); read-out: Kd; compound: `NS(=O)(=O)c1c(F)c(F)c(SCCc2ccc(C(=O)O)cc2)c(F)c1NC1CCCCCCC1`
Given back: 1820

Data provenance is paper PMC6003569.
